A collection of compounds and their measured pEC50
Tested on: A2780 cells
protocol-text: Viability assay in A2780 (Cell Titer Glo)
Type: cell-based, human
condition-notes: Homo sapiens; A2780 cells; read-out: A2780 Cell prolif. EC50
pEC50: −log10 of the molar value.

- C/C=C/C(=O)Nc1cn2cc(-c3cnc(N)c(C(F)(F)F)c3)ccc2n1: > 5.00
- CCN1CCC(Oc2nc(-c3ccc4nc(NC(C)=O)cn4c3)cnc2N)CC1: > 5.00
- N#Cc1cccc(C(=O)Nc2cn3cc(-c4cnc(N)c(C(F)(F)F)c4)ccc3n2)c1: > 5.00

q: I am curious: what pEC50 value has been reported for `CC(=O)Nc1cn2nc(-c3cnc(N)c(-c4ccccc4OC(F)(F)F)c3)ccc2n1` ?
a: > 6.00

q: I am curious: what pEC50 value has been reported for `CC(=O)Nc1cn2cc(-c3cnc(N)c(/C=N/NCC(F)(F)F)c3)ccc2n1` ?
a: > 6.00

q: I am curious: what pEC50 value has been reported for `CC(=O)Nc1cn2nc(-c3cnc(N)c(C(=O)NCCN4CCCC4)c3)ccc2n1` ?
a: > 5.00

q: I am curious: what pEC50 value has been reported for `CC(=O)Nc1cn2nc(-c3cnc(N)c(C(=O)NCCNC(=O)OC(C)(C)C)c3)ccc2n1` ?
a: > 6.00

q: I am curious: what pEC50 value has been reported for `CC(=O)Nc1nc2ccc(-c3cnc(N)c(C(F)(F)F)c3)cn2c1C#CCN1CCOCC1` ?
a: > 5.00

q: I am curious: what pEC50 value has been reported for `CC(C)(C)OC(=O)NCC(=O)Nc1cn2cc(-c3cnc(N)c(C(F)(F)F)c3)ccc2n1` ?
a: > 5.00

q: I am curious: what pEC50 value has been reported for `CCOCC(=O)Nc1cn2cc(-c3cnc(N)c(C(F)(F)F)c3)ccc2n1` ?
a: > 5.00

q: I am curious: what pEC50 value has been reported for `CC(=O)Nc1cn2cc(-c3cnc(N)c(-c4ccccc4C(F)(F)F)c3)ccc2n1` ?
a: > 5.00
